# system: Alpha amylase (Homo sapiens)
# protocol-details: Inhibition of alpha-amylase (unknown origin) using starch as substrate preincubated for 10 mins followed by substrate addition measured after 10 mins by dinitrosalicylic acid color reagent based assay
quantity-measured: IC50 (nM)

{"columns": ["compound", "reading-unit", "IC50"],
 "data": [
  ["COc1cc(/C=C2/C(=O)N(c3ccc(Cl)cc3)N=C2C)cc(OC)c1", "nM", 2210],
  ["COc1ccc(/C=C2/C(=O)N(c3ccc(Cl)cc3)N=C2C)c(Cl)c1OC", "nM", 1970],
  ["COc1ccc(/C=C2/C(=O)N(c3ccc(Cl)cc3)N=C2C)cc1OC", "nM", 2030],
  ["COc1cc(/C=C2/C(=O)N(c3ccc(Cl)cc3)N=C2C)cc(OC)c1OC", "nM", 2190],
  ["COc1ccccc1/C=C1/C(=O)N(c2ccc(Cl)cc2)N=C1C", "nM", 2020],
  ["CC1=NN(c2ccc(Cl)cc2)C(=O)/C1=C/c1cc(Cl)cc(Cl)c1O", "nM", 1610],
  ["CC1=NN(c2ccc(Cl)cc2)C(=O)/C1=C/c1cc(F)ccc1Br", "nM", 1930],
  ["COc1cc(/C=C2/C(=O)N(c3ccc(Cl)cc3)N=C2C)c(OC)cc1Br", "nM", 1860]
]}

###

# system: Alpha amylase (Homo sapiens, UniProt P0DUB6)
# Sequence (P0DUB6 whole entry): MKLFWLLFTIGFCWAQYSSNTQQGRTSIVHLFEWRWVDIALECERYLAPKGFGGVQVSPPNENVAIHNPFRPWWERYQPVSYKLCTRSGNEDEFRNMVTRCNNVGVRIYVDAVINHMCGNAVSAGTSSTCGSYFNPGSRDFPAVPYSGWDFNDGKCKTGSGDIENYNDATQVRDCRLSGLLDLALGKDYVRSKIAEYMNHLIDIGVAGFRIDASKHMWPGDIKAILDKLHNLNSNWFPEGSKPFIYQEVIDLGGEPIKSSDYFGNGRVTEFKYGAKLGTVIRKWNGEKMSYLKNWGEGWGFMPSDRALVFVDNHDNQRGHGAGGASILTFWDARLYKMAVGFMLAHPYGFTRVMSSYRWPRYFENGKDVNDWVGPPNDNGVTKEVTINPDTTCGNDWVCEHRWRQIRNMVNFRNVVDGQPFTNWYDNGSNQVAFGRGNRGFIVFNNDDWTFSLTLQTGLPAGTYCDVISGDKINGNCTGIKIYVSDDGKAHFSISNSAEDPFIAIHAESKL
# protocol-details: Inhibition of alpha-amylase (unknown origin) using starch as substrate preincubated for 10 mins followed by substrate addition measured after 10 mins by dinitrosalicylic acid color reagent based assay
quantity-measured: IC50 (µM)

{"columns": ["compound", "IC50 / µM"],
 "data": [
  ["COc1cc(/C=C2/C(=O)N(c3ccc(Cl)cc3)N=C2C)ccc1OC(C)=O", 1.94],
  ["COc1cc(/C=C2/C(=O)N(c3ccc(Cl)cc3)N=C2C)ccc1OCc1ccccc1", 2.33],
  ["COc1ccc(/C=C2/C(=O)N(c3ccc(Cl)cc3)N=C2C)cc1Br", 1.92],
  ["CC1=NN(c2ccc(Cl)cc2)C(=O)/C1=C/c1ccc(Br)cc1", 1.92],
  ["COc1ccc(/C=C2/C(=O)N(c3ccc(Cl)cc3)N=C2C)c(OC)c1", 2.01],
  ["COc1cc(/C=C2/C(=O)N(c3ccc(Cl)cc3)N=C2C)cc(OC)c1Br", 1.68],
  ["CC1=NN(c2ccc(Cl)cc2)C(=O)/C1=C/c1c[nH]c2ccccc12", 2.16],
  ["CC1=NN(c2ccc(Cl)cc2)C(=O)/C1=C/c1ccc([N+](=O)[O-])cc1", 2.38],
  ["COc1ccc(/C=C2/C(=O)N(c3ccc(Cl)cc3)N=C2C)c(OC)c1OC", 2.1],
  ["COc1ccc(OC)c(/C=C2/C(=O)N(c3ccc(Cl)cc3)N=C2C)c1", 2.13]
]}
